Origin of the recorded values: patent US20250255856A1

Kindly state Cells positive for HS (%) for each of the entries shown.
tested on: control clone (WT) of human neuroblastoma cell line SK-NBE; assay: Heparan sulfate (HS) immunofluorescence in control (WT) SK-NBE clone; assay type: cell-based; details: 20 μM, 48 hours
Where a name gives a salt, the structure may show the parent alone.
Your answer should be a plain number; it is taken to be in %.

Enquiry: Dear colleague, I am looking for the recorded Cells positive for HS (%) of the following compound: COCCCCCCCCCN1C[C@@H](O)[C@H](O)[C@@H](O)[C@@H]1CO [L-MONDNJ•HCl, N-methoxynonyl L-DNJ]
Return: 2.1

Enquiry: Dear colleague, I am looking for the recorded Cells positive for HS (%) of the following compound: CCCCN1C[C@@H](O)[C@H](O)[C@@H](O)[C@@H]1CO [L-NBDNJ•HCl, N-butyl-L-deoxynojirimycin]
Return: 2.5

Enquiry: Dear colleague, I am looking for the recorded Cells positive for HS (%) of the following compound: CCCCCCCCCN1C[C@@H](O)[C@H](O)[C@@H](O)[C@@H]1CO [L-NNDNJ•HCl]
Return: 4.1

Enquiry: Dear colleague, I am looking for the recorded Cells positive for HS (%) of the following compound: OC[C@@H]1NC[C@@H](O)[C@H](O)[C@H]1O [L-DNJ•HCl]
Return: 2.6

Enquiry: Dear colleague, I am looking for the recorded Cells positive for HS (%) of the following compound: CCCCCCCCCOCCCCCN1C[C@@H](O)[C@H](O)[C@@H](O)[C@@H]1CO [L-NPDNJ•HCl]
Return: 4.4

Enquiry: Dear colleague, I am looking for the recorded Cells positive for HS (%) of the following compound: OC[C@H]1[C@H](O)[C@@H](O)[C@H](O)CN1CCCCCOCC12CC3C[C@H](C1)C[C@H](C3)C2 [L-AMPDNM•HCl, N-adamantanomethoxypentyl L-DNJ]
Return: 2.3

Enquiry: Dear colleague, I am looking for the recorded Cells positive for HS (%) of the following compound: CCCCCCOCCCCCN1C[C@@H](O)[C@H](O)[C@@H](O)[C@@H]1CO [L-HPDNJ•HCl]
Return: 2.4

---

Kindly state Cell number for each of the entries shown.
test system: HeLa tumor epithelial cells; assay: HeLa cell proliferation assay; type: cell-based; settings: after 48 hours
Counter-ions that a name gives are not always drawn.

Enquiry: Dear colleague, I am looking for the recorded Cell number of the following compound: OC[C@H]1NC[C@H](O)[C@@H](O)[C@@H]1O [D-DNJ•HCl, deoxynojirimycin]
Return: 4.4 · 10^5

Enquiry: Dear colleague, I am looking for the recorded Cell number of the following compound: CCCCCCCCCN1C[C@@H](O)[C@H](O)[C@@H](O)[C@@H]1CO [L-NNDNJ•HCl]
Return: 4.2 · 10^5

Enquiry: Dear colleague, I am looking for the recorded Cell number of the following compound: CCCCN1C[C@@H](O)[C@H](O)[C@@H](O)[C@@H]1CO [L-NBDNJ•HCl, N-butyl-L-deoxynojirimycin]
Return: 3.6 · 10^5

Enquiry: Dear colleague, I am looking for the recorded Cell number of the following compound: CCCCCCCCCOCCCCCN1C[C@@H](O)[C@H](O)[C@@H](O)[C@@H]1CO [L-NPDNJ•HCl]
Return: 4.7 · 10^5

Enquiry: Dear colleague, I am looking for the recorded Cell number of the following compound: OC[C@@H]1NC[C@@H](O)[C@H](O)[C@H]1O [L-DNJ•HCl]
Return: 2.9 · 10^5

Enquiry: Dear colleague, I am looking for the recorded Cell number of the following compound: COCCCCCCCCCN1C[C@@H](O)[C@H](O)[C@@H](O)[C@@H]1CO [L-MONDNJ•HCl, N-methoxynonyl L-DNJ]
Return: 3.1 · 10^5

Enquiry: Dear colleague, I am looking for the recorded Cell number of the following compound: OC[C@@H]1[C@@H](O)[C@H](O)[C@@H](O)CN1CCCCCOCC12CC3CC(CC(C3)C1)C2 [D-AMPDNM•HCl]
Return: 5.1 · 10^5

Enquiry: Dear colleague, I am looking for the recorded Cell number of the following compound: CCCCN1C[C@H](O)[C@@H](O)[C@H](O)[C@H]1CO [D-NBDNJ•HCl]
Return: 4.2 · 10^5

Enquiry: Dear colleague, I am looking for the recorded Cell number of the following compound: COCCCCCCCCCN1C[C@H](O)[C@@H](O)[C@H](O)[C@H]1CO.Cl [D-MONDNJ•HCl]
Return: 5.0 · 10^5

Enquiry: Dear colleague, I am looking for the recorded Cell number of the following compound: CCCCCCOCCCCCN1C[C@@H](O)[C@H](O)[C@@H](O)[C@@H]1CO [L-HPDNJ•HCl]
Return: 4.3 · 10^5

Enquiry: Dear colleague, I am looking for the recorded Cell number of the following compound: OC[C@H]1[C@H](O)[C@@H](O)[C@H](O)CN1CCCCCOCC12CC3C[C@H](C1)C[C@H](C3)C2 [L-AMPDNM•HCl, N-adamantanomethoxypentyl L-DNJ]
Return: 3.7 · 10^5
